measuredTarget: UniProtKB P22303
Sequence (P22303 whole entry): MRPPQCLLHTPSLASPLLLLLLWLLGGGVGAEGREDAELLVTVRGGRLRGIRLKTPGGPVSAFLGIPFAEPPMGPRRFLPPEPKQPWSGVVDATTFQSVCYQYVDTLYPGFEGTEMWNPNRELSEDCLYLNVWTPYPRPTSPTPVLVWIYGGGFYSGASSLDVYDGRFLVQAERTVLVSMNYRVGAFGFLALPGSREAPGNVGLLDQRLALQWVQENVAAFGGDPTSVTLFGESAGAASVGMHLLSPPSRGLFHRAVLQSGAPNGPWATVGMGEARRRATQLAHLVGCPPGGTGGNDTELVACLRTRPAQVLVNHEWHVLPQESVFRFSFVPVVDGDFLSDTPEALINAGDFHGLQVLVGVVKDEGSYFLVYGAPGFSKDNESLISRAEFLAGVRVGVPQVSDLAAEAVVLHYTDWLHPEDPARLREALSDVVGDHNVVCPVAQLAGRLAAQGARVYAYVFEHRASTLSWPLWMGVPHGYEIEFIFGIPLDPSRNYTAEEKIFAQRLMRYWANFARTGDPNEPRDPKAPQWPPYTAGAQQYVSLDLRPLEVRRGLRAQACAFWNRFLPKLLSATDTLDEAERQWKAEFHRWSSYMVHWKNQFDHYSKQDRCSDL
protocolText: Inhibition of Acetylcholinesterase from human red blood cells
// assign 1 if IC50 falls strictly below 50 µM, else -1 (ties count as -1)

# molecule, assignedClass
rows = [
    ("CCN(CC)CCNC(=O)c1ccc(N)cc1 [PROCAINAMIDE]", 1),
    ("CCCSC(=O)OCC[N+](C)(C)C", -1),
    ("C[N+](C)(C)CCOC(=O)Sc1ccccc1.[Cl-]", -1),
    ("CCC(C)CSC(=O)OCC[N+](C)(C)C.[Cl-] (stereo not drawn)", -1),
    ("CCCCSC(=O)OCC[N+](C)(C)C", -1),
    ("CCc1ccc(SC(=O)OCC[N+](C)(C)C)cc1", -1),
    ("CCCCCSC(=O)OCC[N+](C)(C)C", 1),
    ("CCSC(=O)OCC[N+](C)(C)C", -1),
    ("CCCCCCSC(=O)OCC[N+](C)(C)C", -1),
    ("CCC(C)(C)SC(=O)OCC[N+](C)(C)C.[Cl-]", 1),
]

====

Target or system Acetylcholinesterase (Bos taurus, UniProt P23795); recorded quantity pKi.
pKi: −log10 of the molar value.
endpointLabel: pKi

# molecule, endpointLabel, resultValue
data = [
    ("CCN(CC)CCNC(=O)c1ccc(N)cc1 [PROCAINAMIDE]", "pKi", 6.00),
    ("CCCCCSC(=O)OCC[N+](C)(C)C", "pKi", 6.00),
    ("CCCCCCCSC(=O)OCC[N+](C)(C)C", "pKi", 5.00),
]

====

measuredTarget: Acetylcholinesterase (Bos taurus)
Sequence (P23795 whole entry): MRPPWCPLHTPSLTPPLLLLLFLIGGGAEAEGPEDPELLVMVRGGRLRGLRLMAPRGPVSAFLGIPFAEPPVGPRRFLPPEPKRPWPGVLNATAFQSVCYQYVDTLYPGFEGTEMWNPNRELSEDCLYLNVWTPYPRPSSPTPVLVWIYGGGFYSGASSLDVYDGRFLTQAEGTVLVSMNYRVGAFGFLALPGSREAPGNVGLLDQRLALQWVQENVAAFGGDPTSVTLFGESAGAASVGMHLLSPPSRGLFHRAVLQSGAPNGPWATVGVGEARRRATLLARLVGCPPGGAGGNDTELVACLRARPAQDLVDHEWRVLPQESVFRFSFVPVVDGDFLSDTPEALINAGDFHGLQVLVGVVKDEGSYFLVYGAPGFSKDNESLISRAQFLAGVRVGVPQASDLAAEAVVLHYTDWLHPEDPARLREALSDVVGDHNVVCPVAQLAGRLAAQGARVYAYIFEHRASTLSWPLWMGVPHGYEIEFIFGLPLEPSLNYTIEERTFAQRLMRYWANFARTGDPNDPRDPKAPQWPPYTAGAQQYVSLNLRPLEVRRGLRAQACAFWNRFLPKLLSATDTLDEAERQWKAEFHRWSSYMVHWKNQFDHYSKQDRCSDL
protocolText: Inhibition of Acetylcholinesterase activity of calf forebrain
pIC50: −log10 of the molar value.
endpointLabel: pIC50

# compoundString, endpointLabel, rel, resultValue
records = [
    ("CCCCCCSC(=O)OCC[N+](C)(C)C", "pIC50", "=", 4.70),
    ("CCCSC(=O)OCC[N+](C)(C)C", "pIC50", "<", 3.00),
    ("CCCCCSC(=O)OCC[N+](C)(C)C", "pIC50", "=", 6.00),
    ("CCc1ccc(SC(=O)OCC[N+](C)(C)C)cc1", "pIC50", "=", 4.00),
    ("CCc1ccccc1SC(=O)OCC[N+](C)(C)C.[Cl-]", "pIC50", "=", 5.00),
    ("CCCCSC(=O)OCC[N+](C)(C)C", "pIC50", "=", 4.00),
    ("CCCCCCCSC(=O)OCC[N+](C)(C)C", "pIC50", "=", 5.00),
]

Sourced from ChEMBL document CHEMBL1130148
